# Test system: Fathead minnow (Pimephales promelas) acute toxicity, lethality
# EXPERIMENTAL_DETAILS: DSSTox (EPAFHM) EPA Fathead Minnow Acute Toxicity
READOUT_KIND: Potency

Indicate the recorded Potency value for this molecule: O=C(c1ccccc1)c1ccncc1
562 µM

Indicate the recorded Potency value for this molecule: CCc1cccc(CC)c1N(COC)C(=O)CCl
18.5 µM

Indicate the recorded Potency value for this molecule: Oc1c(I)cc(I)cc1I
2.56 µM

Indicate the recorded Potency value for this molecule: N#CCCCCCCC#N
3880 µM

Indicate the recorded Potency value for this molecule: Oc1ccc(Cl)cc1Cl
47.5 µM

Indicate the recorded Potency value for this molecule: CNC(=O)O/N=C(\C)SC
13 µM

Indicate the recorded Potency value for this molecule: CCCSSCCC
17 µM

Indicate the recorded Potency value for this molecule: C=CC(C)(O)CC/C=C(\C)CCC=C(C)C (centres undefined)
6.43 µM

Indicate the recorded Potency value for this molecule: Nc1ccccc1C(=O)c1ccc(Cl)cc1
9.15 µM

Indicate the recorded Potency value for this molecule: CC(C)(O)C(Cl)(Cl)Cl
362 µM

Indicate the recorded Potency value for this molecule: O=S(=O)([O-])c1ccc[n+](Cc2ccccc2)c1
9670 µM

Indicate the recorded Potency value for this molecule: Clc1cccc(Cl)c1C(Cl)Cl
4.22 µM

Indicate the recorded Potency value for this molecule: O=[N+]([O-])c1cc([N+](=O)[O-])c2ccccc2c1O
14.5 µM

Indicate the recorded Potency value for this molecule: Oc1ccccc1-c1ccccc1
36.1 µM

Indicate the recorded Potency value for this molecule: CC1(C)CCC(C)(C)O1
1310 µM

Indicate the recorded Potency value for this molecule: CCOC(=O)c1ccccc1C(=O)OCC
143 µM

Indicate the recorded Potency value for this molecule: NCCCN1CCN(CCCN)CC1
15500 µM

Indicate the recorded Potency value for this molecule: c1cc(CCc2ccncc2)ccn1
820 µM

Indicate the recorded Potency value for this molecule: CCOC(=O)C(Cl)C(=O)OCC
4.88 µM

Indicate the recorded Potency value for this molecule: Cc1ccccc1C=O
440 µM

Indicate the recorded Potency value for this molecule: c1ccc2occc2c1
119 µM

Indicate the recorded Potency value for this molecule: CCCCCCCBr
8.21 µM

Indicate the recorded Potency value for this molecule: CCCCOC(=O)c1ccc(C(=O)OCCCC)cc1
2.12 µM

Indicate the recorded Potency value for this molecule: C1C2CC3CC1CC(C2)C3
2.06 µM

Indicate the recorded Potency value for this molecule: OCC(F)(F)F
1190 µM

Indicate the recorded Potency value for this molecule: OCCOc1ccccc1
2490 µM

Indicate the recorded Potency value for this molecule: CC(=O)CC(C)C
5210 µM

Indicate the recorded Potency value for this molecule: COc1cccc(C=O)c1O
15.8 µM

Indicate the recorded Potency value for this molecule: C=Cn1c2ccccc2c2ccccc21
0.0166 µM

Indicate the recorded Potency value for this molecule: O=c1cc(-c2ccccc2)oc2ccccc12
15.7 µM

Indicate the recorded Potency value for this molecule: NC(=O)c1ccc([N+](=O)[O-])cc1
801 µM

Indicate the recorded Potency value for this molecule: CCCCCCO
956 µM

Indicate the recorded Potency value for this molecule: CC(C)(c1cc(Cl)c(O)c(Cl)c1)c1cc(Cl)c(O)c(Cl)c1
3.63 µM

Indicate the recorded Potency value for this molecule: CCOP(=O)(OCC)SCCSCC
61.9 µM

* * *

# Test system: Fathead minnow (Pimephales promelas) acute toxicity, lethality
# EXPERIMENTAL_DETAILS: DSSTox (EPAFHM) EPA Fathead Minnow Acute Toxicity
Please respond with reported Potency for every item in the list.

Indicate the recorded Potency value for this compound: CC/C(C)=N/O
9680 µM

Indicate the recorded Potency value for this compound: C=C(C)[C@H]1Cc2c(ccc3c2O[C@@H]2COc4cc(OC)c(OC)cc4[C@@H]2C3=O)O1
0.0132 µM

Indicate the recorded Potency value for this compound: CC(=O)c1ccc(Cl)c(Cl)c1Cl
8.95 µM

Indicate the recorded Potency value for this compound: O=C1NS(=O)(=O)c2ccccc21
82000 µM

Indicate the recorded Potency value for this compound: C#CCCO
515 µM

Indicate the recorded Potency value for this compound: Clc1cccc(Cl)c1
54.6 µM

Indicate the recorded Potency value for this compound: CC(N)CN (stereo not drawn)
13600 µM

Indicate the recorded Potency value for this compound: CCc1ccc(O)cc1
85.1 µM

Indicate the recorded Potency value for this compound: CCOP(=S)(OCC)Oc1nc(Cl)c(Cl)cc1Cl
0.907 µM

Indicate the recorded Potency value for this compound: Nc1ccc(O)c([N+](=O)[O-])c1
235 µM

Indicate the recorded Potency value for this compound: N#CCCl
17.8 µM

Indicate the recorded Potency value for this compound: O=[N+]([O-])c1ncccc1O
1190 µM

Indicate the recorded Potency value for this compound: CCSCCCCSCC
34 µM

Indicate the recorded Potency value for this compound: CC#CCO
144 µM

Indicate the recorded Potency value for this compound: COC(=O)c1ccc(Cl)cc1
64 µM

Indicate the recorded Potency value for this compound: Cc1ccc(N)c(Cl)c1
254 µM

Indicate the recorded Potency value for this compound: Oc1cccnc1Cl
4800 µM

Indicate the recorded Potency value for this compound: CCOC(N)=O
58800 µM

* * *

# Test system: Fathead minnow (Pimephales promelas) acute toxicity, lethality
# EXPERIMENTAL_DETAILS: DSSTox (EPAFHM) EPA Fathead Minnow Acute Toxicity
Please respond with reported Potency for every item in the list.

Indicate the recorded Potency value for this compound: CCC(C)C=O (centres undefined)
116 µM

Indicate the recorded Potency value for this compound: O=[N+]([O-])c1ccccc1
967 µM

Indicate the recorded Potency value for this compound: CC(C)CO
19300 µM

Indicate the recorded Potency value for this compound: CSCCCCCCSC
56.6 µM

Indicate the recorded Potency value for this compound: N#Cc1cc(Cl)ccc1N
187 µM

Indicate the recorded Potency value for this compound: CNc1ccc(F)cc1
307 µM

Indicate the recorded Potency value for this compound: Nc1ccc(Cl)c(Cl)c1Cl
18.5 µM

Indicate the recorded Potency value for this compound: N#Cc1cccc(C(F)(F)F)c1
279 µM

Indicate the recorded Potency value for this compound: COc1ccccc1C(N)=O
794 µM

* * *

# System: Fathead minnow (Pimephales promelas) acute toxicity, lethality
# EXPERIMENTAL_DETAILS: DSSTox (EPAFHM) EPA Fathead Minnow Acute Toxicity
Calls of active or inactive are those of the source.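 Rule for the calls: active = a concentration killing half the fathead minnows in the acute test was determined; inconclusive = some fish died but not half at top dose; inactive = no fish died even at top dose.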
In this exercise, the only acceptable responses are active, inactive

What is the recorded call for this compound in the test? C=CC(=O)OCCCCCCCCCCCC
inactive

What is the recorded call for this compound in the test? CCCCCCCCOC(=O)c1ccccc1C(=O)OCCCCCCCC
inactive

What is the recorded call for this compound in the test? CCCCCCCCCCCCCC=O
inactive

What is the recorded call for this compound in the test? O=c1cc[nH]c(=O)[nH]1
inactive

What is the recorded call for this compound in the test? O=C1c2ccccc2C(=O)c2ccccc21
inactive

What is the recorded call for this compound in the test? Cc1ccc(SSc2ccc(C)cc2)cc1
inactive

What is the recorded call for this compound in the test? ClC(Cl)=C(Cl)c1c(Cl)c(Cl)c(Cl)c(Cl)c1Cl
inactive

What is the recorded call for this compound in the test? Clc1cc(Cl)c(SSc2cc(Cl)c(Cl)cc2Cl)cc1Cl
inactive

What is the recorded call for this compound in the test? O=[N+]([O-])c1cccc(P(=O)(c2cccc([N+](=O)[O-])c2)c2cccc([N+](=O)[O-])c2)c1
inactive

What is the recorded call for this compound in the test? CN(C)c1ccc(P(=O)(c2ccc(N(C)C)cc2)c2ccc(N(C)C)cc2)cc1
inactive

What is the recorded call for this compound in the test? CCCCC(CC)COC(=O)c1ccccc1C(=O)OCC(CC)CCCC (configuration not stated)
inactive

What is the recorded call for this compound in the test? CCCCCCC(=O)CCCCCC
inactive

What is the recorded call for this compound in the test? Cc1ccc([N+](=O)[O-])c(OP(=O)(Oc2cc(C)ccc2[N+](=O)[O-])Oc2cc(C)ccc2[N+](=O)[O-])c1
inactive

What is the recorded call for this compound in the test? NCCc1ccccn1
inactive

What is the recorded call for this compound in the test? O=S(c1ccc(Cl)cc1)c1ccc(Cl)cc1
inactive

What is the recorded call for this compound in the test? O=P(Oc1c(Cl)cccc1Cl)(Oc1c(Cl)cccc1Cl)Oc1c(Cl)cccc1Cl
inactive

What is the recorded call for this compound in the test? Cc1cc2nc3c(=O)[nH]c(=O)nc-3n(C[C@H](O)[C@H](O)[C@H](O)CO)c2cc1C
inactive

What is the recorded call for this compound in the test? CO
active

What is the recorded call for this compound in the test? c1ccc(N(c2ccccc2)c2ccccc2)cc1
inactive

What is the recorded call for this compound in the test? C(/C=C/c1ccccc1)=C\c1ccccc1
inactive

What is the recorded call for this compound in the test? Cc1ccc(OP(=O)(Oc2ccc(C)c(C)c2)Oc2ccc(C)c(C)c2)cc1C
inactive

What is the recorded call for this compound in the test? O=[N+]([O-])c1ccc(Oc2ccc(Br)cc2)c([N+](=O)[O-])c1
inactive
